The measured values listed here are drawn from patent US20250368742A1.

Target: T1, human MICA004 on cells (human)
T1 construct: whole, on cells; also called CHO-MICA004; C1R-MICA004
Experiment: flow cytometry, CHO-MICA004 cells
Would you kindly list EC50 for each of these binders?
Field format: number, assumed µg/mL, no unit text.

Enquiry: What EC50 value was documented for this binder, 3F9 (antibody, human IgG1, kappa, V domains shown, also called benchmark 3F9) VH: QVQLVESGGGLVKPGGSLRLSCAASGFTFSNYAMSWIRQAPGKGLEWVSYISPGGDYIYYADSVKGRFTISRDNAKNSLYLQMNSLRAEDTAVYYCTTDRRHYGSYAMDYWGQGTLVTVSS VL: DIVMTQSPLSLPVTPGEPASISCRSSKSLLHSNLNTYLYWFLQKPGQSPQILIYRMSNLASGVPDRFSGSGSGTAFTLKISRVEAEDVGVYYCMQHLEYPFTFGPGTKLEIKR ?
Return: 0.443

Enquiry: Lookup 6E1.1.12 (antibody, human IgG1, kappa, V domains shown) VH: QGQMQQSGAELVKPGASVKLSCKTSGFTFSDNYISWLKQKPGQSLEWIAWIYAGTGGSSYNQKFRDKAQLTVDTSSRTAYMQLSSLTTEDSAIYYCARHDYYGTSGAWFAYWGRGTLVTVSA VL: DVLMTQTPLSLPVSLGDQASISCRSSQHIVHSNENTYLEWYLQKPGQSPKLLIYKVSNRFSGVPDRFSGSGSGTDFTLKISRVEAEDLGVYYCFQGSHVPWTFGGGTKVEIKR
Return: 0.239
